Numbers sourced from BigSolDB 2.1.

# experimental context: in isobutanol, 321.95 K
measured property: solubility (mole fraction)
// response body must contain only the number

### Prompt Recorded solubility (mole fraction) of CCCCCOC(=O)Nc1nc(=O)n([C@@H]2O[C@H](C)[C@@H](O)[C@H]2O)cc1F , please.
### Response 0.0492

====

# experimental context: in isopentanol, 316.78 K
measured property: solubility (mole fraction)
No unit in the answer, only the number.

### Prompt Consider the molecule shown here: CCCCCOC(=O)Nc1nc(=O)n([C@@H]2O[C@H](C)[C@@H](O)[C@H]2O)cc1F What is its recorded solubility (mole fraction)?
### Response 0.0361

====

# experimental context: in sec-butanol, 283.17 K
measured property: solubility (mole fraction)
No unit in the answer, please; the number alone is enough.

### Prompt Quick one: solubility (mole fraction) for CCCCCOC(=O)Nc1nc(=O)n([C@@H]2O[C@H](C)[C@@H](O)[C@H]2O)cc1F ?
### Response 0.0016

====

# experimental context: in ethanol, 282.86 K
measured property: solubility (mole fraction)
Output spec: single numeric token, no unit.

### Prompt // returns reported solubility (mole fraction) for input CCCCCOC(=O)Nc1nc(=O)n([C@@H]2O[C@H](C)[C@@H](O)[C@H]2O)cc1F
### Response 0.0123

====

# experimental context: in water, 322.75 K
measured property: solubility (mole fraction)
Lab note: write the figure by itself, no unit.

### Prompt What does the record list as solubility (mole fraction) for CCCCCOC(=O)Nc1nc(=O)n([C@@H]2O[C@H](C)[C@@H](O)[C@H]2O)cc1F ?
### Response 0.0017

====

# experimental context: in 2-octanol, 317.75 K
measured property: solubility (mole fraction)
Note: the reply should be a number with no unit written.

### Prompt Would you mind telling me what solubility (mole fraction) value was observed for CCCCCOC(=O)Nc1nc(=O)n([C@@H]2O[C@H](C)[C@@H](O)[C@H]2O)cc1F ?
### Response 0.0116

====

# experimental context: in ethylene glycol, 312.1 K
measured property: solubility (mole fraction)
Please respond with just the number, no unit label.

### Prompt What value of solubility (mole fraction) has been recorded for this entry: CCCCCOC(=O)Nc1nc(=O)n([C@@H]2O[C@H](C)[C@@H](O)[C@H]2O)cc1F
### Response 0.0539

====

# experimental context: in 2-ethylhexanol, 302.24 K
measured property: solubility (mole fraction)

### Prompt Which solubility (mole fraction) reading was recorded for the compound CCCCCOC(=O)Nc1nc(=O)n([C@@H]2O[C@H](C)[C@@H](O)[C@H]2O)cc1F ?
### Response 0.005

====

# experimental context: in ethanol, 302.55 K
measured property: solubility (mole fraction)
// return just the number, without any unit appended

### Prompt Data request, read-out solubility (mole fraction), for CCCCCOC(=O)Nc1nc(=O)n([C@@H]2O[C@H](C)[C@@H](O)[C@H]2O)cc1F
### Response 0.048

====

# experimental context: in ethylene glycol, 297.95 K
measured property: solubility (mole fraction)
The response must contain the number and no unit.

### Prompt Report solubility (mole fraction) for CCCCCOC(=O)Nc1nc(=O)n([C@@H]2O[C@H](C)[C@@H](O)[C@H]2O)cc1F please.
### Response 0.0267

====

# experimental context: in ethanol, 278.25 K
measured property: solubility (mole fraction)
Respond with the number and no other words.

### Prompt solubility (mole fraction) lookup needed for CCCCCOC(=O)Nc1nc(=O)n([C@@H]2O[C@H](C)[C@@H](O)[C@H]2O)cc1F , thanks.
### Response 0.0099

====

# experimental context: in n-hexanol, 313.15 K
measured property: solubility (mole fraction)
Just the number.

### Prompt Look up solubility (mole fraction) for this compound: CCCCCOC(=O)Nc1nc(=O)n([C@@H]2O[C@H](C)[C@@H](O)[C@H]2O)cc1F
### Response 0.0241

====

# experimental context: in isopentanol, 321.47 K
measured property: solubility (mole fraction)
Number, no unit, nothing else.

### Prompt Reported solubility (mole fraction), compound CCCCCOC(=O)Nc1nc(=O)n([C@@H]2O[C@H](C)[C@@H](O)[C@H]2O)cc1F : ____
### Response 0.0485

====

# experimental context: in ethylene glycol, 283.15 K
measured property: solubility (mole fraction)
Answer as a number with no unit attached.

### Prompt # input compound: CCCCCOC(=O)Nc1nc(=O)n([C@@H]2O[C@H](C)[C@@H](O)[C@H]2O)cc1F ; wanted: its solubility (mole fraction)
### Response 0.0125

====

# experimental context: in n-propanol, 321.47 K
measured property: solubility (mole fraction)

### Prompt So what's the measured solubility (mole fraction) for this one? CCCCCOC(=O)Nc1nc(=O)n([C@@H]2O[C@H](C)[C@@H](O)[C@H]2O)cc1F
### Response 0.0997

====

# experimental context: in n-octanol, 317.05 K
measured property: solubility (mole fraction)
The answer should be written as a number, with no unit following it.

### Prompt Name the reported solubility (mole fraction) value associated with the molecule CCCCCOC(=O)Nc1nc(=O)n([C@@H]2O[C@H](C)[C@@H](O)[C@H]2O)cc1F
### Response 0.0226

====

# experimental context: in n-butanol, 322.49 K
measured property: solubility (mole fraction)

### Prompt Please give the measured solubility (mole fraction) for this compound: CCCCCOC(=O)Nc1nc(=O)n([C@@H]2O[C@H](C)[C@@H](O)[C@H]2O)cc1F
### Response 0.077

====

# experimental context: in n-propanol, 312.14 K
measured property: solubility (mole fraction)
Lab note: write the figure by itself, no unit.

### Prompt Give the measured solubility (mole fraction) of CCCCCOC(=O)Nc1nc(=O)n([C@@H]2O[C@H](C)[C@@H](O)[C@H]2O)cc1F .
### Response 0.0471

====

# experimental context: in isopropanol, 283.49 K
measured property: solubility (mole fraction)
Provide a numeric answer; units are not to be included.

### Prompt // lookup solubility (mole fraction) for CCCCCOC(=O)Nc1nc(=O)n([C@@H]2O[C@H](C)[C@@H](O)[C@H]2O)cc1F
### Response 0.0016

====

# experimental context: in n-heptanol, 318.05 K
measured property: solubility (mole fraction)
// no unit, no text: just the number

### Prompt Given CCCCCOC(=O)Nc1nc(=O)n([C@@H]2O[C@H](C)[C@@H](O)[C@H]2O)cc1F , state its recorded solubility (mole fraction).
### Response 0.0226

====

# experimental context: in n-pentanol, 307.06 K
measured property: solubility (mole fraction)
Response field accepts a number only; no unit should be typed.

### Prompt I'd like to know its solubility (mole fraction). The compound in question is CCCCCOC(=O)Nc1nc(=O)n([C@@H]2O[C@H](C)[C@@H](O)[C@H]2O)cc1F
### Response 0.0205

====

# experimental context: in n-butanol, 278.1 K
measured property: solubility (mole fraction)

### Prompt Reported solubility (mole fraction) for CCCCCOC(=O)Nc1nc(=O)n([C@@H]2O[C@H](C)[C@@H](O)[C@H]2O)cc1F : what is it?
### Response 0.0021

====

# experimental context: in n-heptanol, 322.85 K
measured property: solubility (mole fraction)
Give the figure by itself; no unit, no explanation.

### Prompt Could you tell me which solubility (mole fraction) is on file for CCCCCOC(=O)Nc1nc(=O)n([C@@H]2O[C@H](C)[C@@H](O)[C@H]2O)cc1F ?
### Response 0.0299

====

# experimental context: in ethylene glycol, 287.95 K
measured property: solubility (mole fraction)
In your answer, state the number alone without any accompanying words.

### Prompt So what's the measured solubility (mole fraction) for this one? CCCCCOC(=O)Nc1nc(=O)n([C@@H]2O[C@H](C)[C@@H](O)[C@H]2O)cc1F
### Response 0.017

====

# experimental context: in n-butanol, 317.4 K
measured property: solubility (mole fraction)
I'd appreciate a reply containing only the number, no unit.

### Prompt Give the measured solubility (mole fraction) of CCCCCOC(=O)Nc1nc(=O)n([C@@H]2O[C@H](C)[C@@H](O)[C@H]2O)cc1F .
### Response 0.051

====

# experimental context: in 2-ethylhexanol, 282.93 K
measured property: solubility (mole fraction)
Number only, please.

### Prompt Can you look up the measured solubility (mole fraction) of CCCCCOC(=O)Nc1nc(=O)n([C@@H]2O[C@H](C)[C@@H](O)[C@H]2O)cc1F for me?
### Response 0.0013

====

# experimental context: in water, 293.25 K
measured property: solubility (mole fraction)
Answer as a number with no unit attached.

### Prompt Entry CCCCCOC(=O)Nc1nc(=O)n([C@@H]2O[C@H](C)[C@@H](O)[C@H]2O)cc1F has what solubility (mole fraction)?
### Response 0.0011

====

# experimental context: in water, 288.3 K
measured property: solubility (mole fraction)
Answer with the value's number alone.

### Prompt Can you look up the measured solubility (mole fraction) of CCCCCOC(=O)Nc1nc(=O)n([C@@H]2O[C@H](C)[C@@H](O)[C@H]2O)cc1F for me?
### Response 0.001
